molecular target: K413R-IDH2 (Homo sapiens, UniProt P48735, K413R); test: oxidative IDH2 activity, K413R-IDH2 in HEK293T cell lysates; assay type: biochemical
value-type: pIC50
Note on units: pIC50 is unitless, being -log10 of a concentration expressed in mol/L.

Quick note, pIC50 for `CC(C)CC(=O)c1c(O)c(C=O)c(O)c(C=O)c1O` landed at 4.67

---

target: K677R/K681R/K315R-PFKL (Homo sapiens, UniProt P17858, K315R/K677R/K681R); assay: enzyme-coupled F6P phosphorylation assay, K677R/K681R/K315R-PFKL triple mutant; conditions: read-out: IC50, inhibition of PFKL activity
Sequence (P17858 whole entry K315R/K677R/K681R): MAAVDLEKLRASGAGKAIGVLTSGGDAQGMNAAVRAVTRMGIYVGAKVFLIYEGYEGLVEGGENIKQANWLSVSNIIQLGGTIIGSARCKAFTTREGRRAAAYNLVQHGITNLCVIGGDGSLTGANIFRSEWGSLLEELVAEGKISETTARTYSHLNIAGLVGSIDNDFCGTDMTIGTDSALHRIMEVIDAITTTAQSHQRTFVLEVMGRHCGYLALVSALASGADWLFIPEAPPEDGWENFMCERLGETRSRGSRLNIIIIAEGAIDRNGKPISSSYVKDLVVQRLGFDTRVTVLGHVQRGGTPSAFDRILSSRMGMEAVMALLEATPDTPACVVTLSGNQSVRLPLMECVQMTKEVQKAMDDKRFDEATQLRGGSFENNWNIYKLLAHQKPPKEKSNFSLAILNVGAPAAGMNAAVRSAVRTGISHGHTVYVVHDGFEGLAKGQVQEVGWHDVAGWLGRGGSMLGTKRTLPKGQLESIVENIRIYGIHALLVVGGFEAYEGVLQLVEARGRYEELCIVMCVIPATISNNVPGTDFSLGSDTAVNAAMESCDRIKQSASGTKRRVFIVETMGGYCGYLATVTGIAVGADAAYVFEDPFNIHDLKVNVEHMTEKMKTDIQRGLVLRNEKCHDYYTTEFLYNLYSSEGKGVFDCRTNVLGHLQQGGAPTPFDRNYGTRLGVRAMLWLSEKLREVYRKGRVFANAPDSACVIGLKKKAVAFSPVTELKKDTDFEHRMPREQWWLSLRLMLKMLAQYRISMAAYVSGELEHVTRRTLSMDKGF
value-type: IC50

get_value(item= CC1(C)[C@@H]2C[C@H]3[C@H](c4ccccc4)c4c(O)c(C=O)c(O)c(C=O)c4O[C@@]3(C)[C@H]1C2 [(−)-guadial B] , readout=IC50) returns > 100 µM

---

target: WT-ABHD12 (Homo sapiens); experiment: LC/MS-based LPS hydrolysis assay, WT-ABHD12 in HEK293T cell lysates; assay type: biochemical
Sequence (Q8N2K0 whole entry): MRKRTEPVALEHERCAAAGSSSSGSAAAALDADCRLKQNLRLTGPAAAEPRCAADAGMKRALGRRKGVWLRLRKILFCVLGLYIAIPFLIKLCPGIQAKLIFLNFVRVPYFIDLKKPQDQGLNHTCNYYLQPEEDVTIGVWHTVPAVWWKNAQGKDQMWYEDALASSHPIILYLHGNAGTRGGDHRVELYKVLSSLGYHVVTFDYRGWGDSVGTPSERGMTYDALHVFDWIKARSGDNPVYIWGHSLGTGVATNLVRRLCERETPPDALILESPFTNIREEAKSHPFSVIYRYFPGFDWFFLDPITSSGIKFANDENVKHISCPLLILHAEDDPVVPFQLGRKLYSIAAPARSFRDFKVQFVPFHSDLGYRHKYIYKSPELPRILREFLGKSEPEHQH
value-type: IC50 (µM)
Entry rule: numbers only, all in µM.

Field IC50 (entry `CC(C)CC(=O)c1c(O)c(C=O)c(O)c(C=O)c1O` ) reads 32.6

---

molecular target: K677R-PFKL (Homo sapiens, UniProt P17858, K677R); assay: enzyme-coupled F6P phosphorylation assay, K677R-PFKL; conditions: read-out: IC50, inhibition of PFKL activity
Sequence (P17858 whole entry K677R): as the sequence (P17858 whole entry K315R/K677R/K681R) above, with R315K, R681K counted along it
value-type: IC50 (µM)
# value in µM; strip the unit string

get_value(item= CC1(C)[C@@H]2C[C@H]3[C@H](c4ccccc4)c4c(O)c(C=O)c(O)c(C=O)c4O[C@@]3(C)[C@H]1C2 [(−)-guadial B] , readout=IC50) returns 8.6

---

molecular target: R140Q-IDH2 (Homo sapiens, UniProt P48735, R140Q); test: reductive activity
Sequence (P48735 40-452 R140Q): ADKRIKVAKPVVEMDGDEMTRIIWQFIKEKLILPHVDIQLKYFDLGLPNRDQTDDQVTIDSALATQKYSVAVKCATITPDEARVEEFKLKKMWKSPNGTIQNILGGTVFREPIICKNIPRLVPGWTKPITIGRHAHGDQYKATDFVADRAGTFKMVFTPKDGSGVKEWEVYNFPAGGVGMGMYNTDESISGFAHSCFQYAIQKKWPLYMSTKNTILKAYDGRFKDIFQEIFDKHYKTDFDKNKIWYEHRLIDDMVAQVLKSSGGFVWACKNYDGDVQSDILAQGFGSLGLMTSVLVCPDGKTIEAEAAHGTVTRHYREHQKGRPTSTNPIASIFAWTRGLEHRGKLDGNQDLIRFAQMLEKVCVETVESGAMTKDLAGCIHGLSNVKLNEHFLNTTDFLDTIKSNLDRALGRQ
value-type: pIC50
pIC50 is defined as minus the log10 of a concentration measured in mol/L.

Field pIC50 (entry CC(C)CC(=O)c1c(O)c(C=O)c(O)c(C=O)c1O [jensenone] ) reads 4.58

---

target: K678R-PFKM (Homo sapiens, UniProt P08237, K678R); assay: F6P phosphorylation assay, K678R-PFKM in HEK293T cell lysates
Sequence (P08237 whole entry K678R): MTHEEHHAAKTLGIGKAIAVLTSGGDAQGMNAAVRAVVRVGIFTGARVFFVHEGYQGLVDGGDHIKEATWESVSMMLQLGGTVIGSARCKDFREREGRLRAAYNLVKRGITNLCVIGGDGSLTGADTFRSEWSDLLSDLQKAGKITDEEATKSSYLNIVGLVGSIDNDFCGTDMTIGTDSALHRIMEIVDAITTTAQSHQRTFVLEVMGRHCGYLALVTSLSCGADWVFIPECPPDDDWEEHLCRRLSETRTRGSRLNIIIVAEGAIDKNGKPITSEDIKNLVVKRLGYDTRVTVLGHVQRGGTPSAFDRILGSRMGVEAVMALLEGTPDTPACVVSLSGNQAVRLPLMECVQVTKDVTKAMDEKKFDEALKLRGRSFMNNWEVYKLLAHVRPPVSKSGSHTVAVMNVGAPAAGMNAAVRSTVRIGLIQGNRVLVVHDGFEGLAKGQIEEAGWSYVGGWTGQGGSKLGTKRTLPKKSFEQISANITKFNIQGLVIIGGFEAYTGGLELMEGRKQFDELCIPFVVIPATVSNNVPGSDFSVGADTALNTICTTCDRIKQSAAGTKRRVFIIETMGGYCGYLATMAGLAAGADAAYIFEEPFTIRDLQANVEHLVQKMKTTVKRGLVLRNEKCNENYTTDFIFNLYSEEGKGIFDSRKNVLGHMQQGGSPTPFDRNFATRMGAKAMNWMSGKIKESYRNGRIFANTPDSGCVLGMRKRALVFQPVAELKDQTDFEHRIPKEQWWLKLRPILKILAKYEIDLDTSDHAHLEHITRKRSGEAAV
value-type: IC50

K678R-PFKM (Homo sapiens, UniProt P08237, K678R) assay, compound CC(C)CC(=O)c1c(O)c(C=O)c(O)c(C=O)c1O [jensenone] , recorded IC50 = > 100 µM

---

biological target: WT-PFKP (Homo sapiens); assay: F6P phosphorylation assay, WT-PFKP in HEK293T cell lysates; assay type: biochemical; settings: read-out: IC50, inhibition of PFKP activity
Sequence (Q01813 whole entry): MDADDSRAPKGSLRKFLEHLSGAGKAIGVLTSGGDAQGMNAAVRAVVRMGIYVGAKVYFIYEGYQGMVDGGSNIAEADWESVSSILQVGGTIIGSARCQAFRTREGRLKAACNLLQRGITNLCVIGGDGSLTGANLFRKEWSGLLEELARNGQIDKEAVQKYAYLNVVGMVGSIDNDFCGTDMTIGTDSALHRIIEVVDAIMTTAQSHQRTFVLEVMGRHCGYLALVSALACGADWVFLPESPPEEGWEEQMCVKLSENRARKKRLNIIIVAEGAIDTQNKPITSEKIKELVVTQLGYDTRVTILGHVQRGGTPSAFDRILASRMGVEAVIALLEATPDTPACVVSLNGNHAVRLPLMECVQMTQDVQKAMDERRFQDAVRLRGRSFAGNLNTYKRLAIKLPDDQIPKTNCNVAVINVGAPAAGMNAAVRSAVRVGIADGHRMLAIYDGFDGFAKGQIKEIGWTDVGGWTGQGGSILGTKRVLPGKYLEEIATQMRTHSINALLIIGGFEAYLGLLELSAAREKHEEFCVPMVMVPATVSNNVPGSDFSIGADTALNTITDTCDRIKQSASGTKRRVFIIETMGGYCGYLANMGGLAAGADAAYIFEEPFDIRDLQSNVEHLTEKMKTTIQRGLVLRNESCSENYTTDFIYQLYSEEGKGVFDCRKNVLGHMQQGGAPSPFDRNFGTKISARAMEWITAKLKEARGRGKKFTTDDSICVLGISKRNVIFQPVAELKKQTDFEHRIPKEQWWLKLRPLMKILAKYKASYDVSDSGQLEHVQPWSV
value-type: IC50 (µM)
Provide only the numeric value, understood in µM.

The recorded IC50 for entry CC1(C)[C@@H]2C[C@H]3[C@H](c4ccccc4)c4c(O)c(C=O)c(O)c(C=O)c4O[C@@]3(C)[C@H]1C2 [(−)-guadial B] equals 3.8

---

biological target: K677R/K681R-PFKL (Homo sapiens, UniProt P17858, K677R/K681R); assay: enzyme-coupled F6P phosphorylation assay, K677R/K681R-PFKL double mutant; conditions: read-out: IC50, inhibition of PFKL activity
value-type: IC50

Just so you know, measured IC50 for CC1(C)[C@@H]2C[C@H]3[C@H](c4ccccc4)c4c(O)c(C=O)c(O)c(C=O)c4O[C@@]3(C)[C@H]1C2 [(−)-guadial B] came out at 78.5 µM

Each recorded value in this set is attributed to paper PMC11000255.
